Measured cytotoxicity at 70.5 h values are reported for all entries that follow.
Experiment: Human HepG2 cell viability assay in 384 well format
Type: toxicity, cell-based
Design: dose 125 nL, time 70.5 hour; concentration not given beside the values
Conditions: HepG2 cells, read-out: Inhibition
Lab book: enter the figure in %, no units written.

compound | cytotoxicity at 70.5 h / %
COC(=O)CCC(=O)N1CCCC2(CCCN2Cc2cccc(F)c2)C1 (stereo not drawn) | -6.42
NC(=O)CN(Cc1ncc(-c2ccc(Cl)cc2)o1)C1CCCC1 | -7.75
Cn1cccc1C(=O)N1CCC(O)(CN2CCc3ccccc3C2)C1 (stereo not drawn) | -4.98
Cc1ccc(F)cc1NS(=O)(=O)c1cc2c(c(C(=O)O)c1)OCCO2 | -5.92
CS(=O)(=O)N1Cc2ccccc2CC2(CCN(Cc3ccccn3)C2)C1 (stereo not drawn) | -10.1
c1cnc(NCC2Cn3nnc(-c4ccsc4)c3CO2)nc1 (stereo not drawn) | -8.81
O=C(CS(=O)(=O)Cc1ccccc1)NC1CCCCNC1=O (stereo not drawn) | 12.6
COCC1CC2(CCN(C(=O)c3oc4ccccc4c3C)CC2)CO1 (stereo not drawn) | 3.46

[in] Read the entry `CC(=O)N1CCO[C@@H]2CN(C(=O)NCc3cccnc3)CC[C@@H]2C1` and write its reported cytotoxicity at 70.5 h.
[out] -2.08

[in] Please give the documented cytotoxicity at 70.5 h of `CN1C[C@H](O)[C@]2(CCN(C(=O)NCc3ccccc3)C2)S1(=O)=O`
[out] -8.64

[in] For `Cc1ncc(C(=O)N2CC[C@@]3(O)CCN(C4CCCCC4)C[C@H]3C2)cn1` , write its cytotoxicity at 70.5 h.
[out] -7.37
